- measurementNotes: Metabolic stability in human liver microsomes assessed as half life preincubated for 10 mins followed by NADPH addition and further incubated upto 60 mins by LC-MS/MS analysis
- Assay type: ADME, Microsome
- conditionDetails: time <=70 min
quantityName: half-life (h)
Quick note: give the figure in h, leave out the unit.

input: Look up half-life for this compound: "CC(C)Oc1cc(F)ccc1Nc1ncnc2ccc(-c3ccc(C(=O)N4CCNCC4)cc3)nc12"
output: 3.4

---

- system: MAP kinase-interacting serine/threonine-protein kinase 2 (Homo sapiens, UniProt Q9HBH9)
- Sequence (Q9HBH9 whole entry): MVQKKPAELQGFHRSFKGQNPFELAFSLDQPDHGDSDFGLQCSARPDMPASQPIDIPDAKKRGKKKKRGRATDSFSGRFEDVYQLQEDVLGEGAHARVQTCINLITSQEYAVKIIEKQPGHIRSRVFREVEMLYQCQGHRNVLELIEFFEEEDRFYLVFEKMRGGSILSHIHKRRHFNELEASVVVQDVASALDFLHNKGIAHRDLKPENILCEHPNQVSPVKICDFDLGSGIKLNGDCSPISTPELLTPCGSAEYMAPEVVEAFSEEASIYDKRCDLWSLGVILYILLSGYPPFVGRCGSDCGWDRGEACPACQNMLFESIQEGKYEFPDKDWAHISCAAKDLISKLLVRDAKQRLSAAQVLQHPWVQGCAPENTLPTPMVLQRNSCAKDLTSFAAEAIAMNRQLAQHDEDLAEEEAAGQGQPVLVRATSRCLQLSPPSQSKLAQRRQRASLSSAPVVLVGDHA
- measurementNotes: Inhibition of MKN2 (unknown origin) in presence of ATP by HTRF assay
pIC50: −log10 of the molar value.
Returns one of 1 or -1; 1 when pIC50 is >= 6.

Answered cases to consult:
O=C(c1ccc(-c2ccc3ncnc(Nc4cccc(F)c4)c3n2)cc1)N1CCNCC1: 1
O=C(c1cccc(C#Cc2ccccc2Nc2ncnc3ccc(Cl)nc23)c1)N1CCOCC1: -1
c1ccc(Nc2ncnc3ccc(-c4ccccc4)nc23)cc1: 1
CNC(=O)c1cccc(C#Cc2ccccc2Nc2ncnc3ccc(Cl)nc23)c1: -1
O=C(c1ccc(-c2ccc3ncnc(Nc4ccc(O)cc4)c3n2)cc1)N1CCNCC1: 1

input: hey, is pIC50 for this one >= 6? "CCCNC(=O)c1oc2ccc(Nc3ncnc4ccc(Cl)nc34)cc2c1C"
output: -1

input: hey, is pIC50 for this one >= 6? "O=C(c1ccc(-c2ccc3ncnc(Nc4ccc(C(F)(F)F)cc4)c3n2)cc1)N1CCNCC1"
output: 1
